test system: Ps. aeruginosa, 32104; assay: Antibacterial activity (MIC), Ps. aeruginosa 32104; format: cell-based; details: Pseudomonas aeruginosa, 32104, Ps. aeruginosa
Property name: MIC (µg/mL)
Unit µg/mL implied. Number only.

Entry under review: `O=C(O)c1cn(C2CC2)c2cc(N3CCNC4(CC4)C3)c(F)cc2c1=O` . Reported MIC?
0.2

Find the recorded MIC belonging to NC1CN(c2c(F)cc3c(=O)c(C(=O)O)cn(C4CC4)c3c2F)CC12CCC2 (stereo not drawn) and report it.
0.1

Fill in: MIC of C[C@H]1COc2c(N3CC(N)C4(CCC4)C3)c(F)cc3c(=O)c(C(=O)O)cn1c23 (stereo partly drawn) is ___
0.39

Consider the compound shown here: CC(C)(C)n1cc(C(=O)O)c(=O)c2cc(F)c(N3CC(N)C4(CC4)C3)nc21 (stereo not drawn) [Compound 41b] What is its recorded MIC?
0.2

I would be grateful if you could share the reported MIC for NC1CN(c2c(F)cc3c(=O)c(C(=O)O)cn(C4CC4)c3c2Cl)CC12CC2 (racemic) .
0.1

###

Property name: MIC (mg/L)
I only need the number, in mg/L, no unit after it.

# returns recorded MIC (system: S. epidermidis, 56500) for N[C@@H]1CN(c2nc3c(cc2F)c(=O)c(C(=O)O)cn3-c2ccc(F)cc2F)CC12CC2 [Compound 111b]
0.1

Can you look up MIC on S. epidermidis, 56500 for C[C@H]1COc2c(N3CC(N)C4(CC4)C3)c(F)cc3c(=O)c(C(=O)O)cn1c23 (stereo partly drawn) [Compound 36] ?
0.2

So what MIC did NC1CN(c2cc3c(cc2F)c(=O)c(C(=O)O)cn3-c2ccc(F)cc2F)CC12CC2 (stereo not drawn) [Compound 34] get with S. epidermidis, 56500?
0.2

API: value(readout= MIC, system= S. epidermidis, 56500, query= CC(C)(C)n1cc(C(=O)O)c(=O)c2cc(F)c(N3CC(N)C4(CC4)C3)nc21 (stereo not drawn) [Compound 41b] )
0.1

Provide value of MIC for this record tested with S. epidermidis, 56500: NC1CN(c2nc3c(cc2F)c(=O)c(C(=O)O)cn3C2CC2)CC12CC2 (stereo not drawn) [Compound 35]
0.2

Find MIC (S. epidermidis, 56500) for the entry C[C@H]1COc2c(N3CC(N)C4(CC4)C3)c(F)cc3c(=O)c(C(=O)O)cn1c23 (single isomer, unassigned; (-)) [Compound 36b]
0.1

# query: MIC | item O=C(O)c1cn(C2CC2)c2cc(N3CCNC4(CC4)C3)c(F)cc2c1=O [Compound 37] | system: S. epidermidis, 56500
0.39

Entry N[C@@H]1CN(c2cc3c(cc2F)c(=O)c(C(=O)O)cn3C2CC2)CC12CC2 [Compound 33b] , system S. epidermidis, 56500: what MIC was measured?
0.1

Item NC1CN(c2cc3c(cc2F)c(=O)c(C(=O)O)cn3C2CC2)CC12CC2 (racemic) [Compound 33] with S. epidermidis, 56500 - MIC?
0.2

API: value(readout= MIC, system= S. epidermidis, 56500, query= NC1CN(c2nc3c(cc2F)c(=O)c(C(=O)O)cn3C2CC2)CC12CC2 (single isomer, unassigned; (-)) [Compound 35b] )
0.1

Quick check: MIC on S. epidermidis, 56500, item NC1CN(c2c(F)cc3c(=O)c(C(=O)O)cn(C4CC4)c3c2Cl)CC12CC2 (racemic) [Compound 32] ?
0.1

What reported MIC corresponds to NC1CN(c2c(F)cc3c(=O)c(C(=O)O)cn(C4CC4)c3c2F)CC12CCCC2 (stereo not drawn) [Compound 95] on S. epidermidis, 56500?
0.1

Tell me reported MIC for NC1CN(c2c(F)cc3c(=O)c(C(=O)O)cn(C4CC4)c3c2F)CC12CC2 (stereo not drawn) [Compound 31] , tested with S. epidermidis, 56500.
0.1

###

Property name: MIC (µg/mL)
Report the figure in µg/mL without appending any unit label.

State its MIC on Str. pyogenes, G-36: NC1CN(c2nc3c(cc2F)c(=O)c(C(=O)O)cn3C2CC2)CC12CC2 (stereo not shown) [Compound 35]
0.78

Lookup: MIC / Str. pyogenes, G-36 / C[C@H]1COc2c(N3CC(N)C4(CCC4)C3)c(F)cc3c(=O)c(C(=O)O)cn1c23 (stereo partly shown) [Compound 98]
0.39

Missing value: MIC, Str. pyogenes, G-36, entry NC1CN(c2cc3c(cc2F)c(=O)c(C(=O)O)cn3-c2ccc(F)cc2F)CC12CC2 (stereo not shown) [Compound 34] . Fill in?
0.39

Short answer please: MIC, Str. pyogenes, G-36, entry O=C(O)c1cn(C2CC2)c2c(F)c(N3CC(CO)C4(CCC4)C3)c(F)cc2c1=O (stereo not shown) [Compound 108]
0.39

###

Property name: MIC (µg/mL)
Value expressed in µg/mL; do not type the unit.

Hello, I am looking for reported MIC with Str. faecalis, ATCC-19433 for NC1CN(c2c(F)cc3c(=O)c(C(=O)O)cn(C4CC4)c3c2F)CC12CCCC2 (stereo not drawn) [Compound 95] . Could you help?
0.2

Record NC1CN(c2c(F)cc3c(=O)c(C(=O)O)cn(C4CC4)c3c2F)CC12CCC2 (stereo not drawn) [Compound 94] : what is its MIC with Str. faecalis, ATCC-19433?
0.2

Record O=C(O)c1cn(C2CC2)c2c(Cl)c(N3CC(O)C4(CC4)C3)c(F)cc2c1=O (stereo not drawn) [Compound 39] : what is its MIC with Str. faecalis, ATCC-19433?
0.39

Value wanted: MIC (Str. faecalis, ATCC-19433) of entry NC1CN(c2cc3c(cc2F)c(=O)c(C(=O)O)cn3C2CC2)CC12CC2 (racemic) [Compound 33]
0.39

Requested read-out MIC, target or system Str. faecalis, ATCC-19433, entry O=C(O)c1cn(C2CC2)c2c(F)c(N3CC(CO)C4(CCC4)C3)c(F)cc2c1=O (stereo not drawn) [Compound 108]
0.2

Lookup: MIC / Str. faecalis, ATCC-19433 / O=C(O)c1cn(C2CC2)c2cc(N3CCNC4(CC4)C3)c(F)cc2c1=O [Compound 37]
0.78

Checklist item: MIC tested on Str. faecalis, ATCC-19433, entry CC(C)(C)n1cc(C(=O)O)c(=O)c2cc(F)c(N3CC(N)C4(CC4)C3)nc21 (stereo not drawn) [Compound 41b] , value?
0.2

Reported MIC for Str. faecalis, ATCC-19433, given NC1CN(c2nc3c(cc2F)c(=O)c(C(=O)O)cn3C2CC2)CC12CC2 (single isomer, unassigned; (-)) [Compound 35b] ?
0.39

Query the reported MIC for Str. faecalis, ATCC-19433; item: NC1CN(c2c(F)cc3c(=O)c(C(=O)O)cn(C4CC4)c3c2F)CC12CC2 (stereo not drawn) [Compound 31]
0.2

Reported MIC for Str. faecalis, ATCC-19433, given C[C@H]1COc2c(N3CC(N)C4(CCC4)C3)c(F)cc3c(=O)c(C(=O)O)cn1c23 (stereo partly drawn) [Compound 98] ?
0.2

Provide value of MIC for this record tested with Str. faecalis, ATCC-19433: Cc1c(N2CC(N)C3(CC3)C2)c(F)cc2c(=O)c(C(=O)O)cn(C3CC3)c12 (single isomer, unassigned; (-)) [Compound 55b]
0.1

Str. faecalis, ATCC-19433 / MIC / NC1CN(c2c(F)cc3c(=O)c(C(=O)O)cn(C4CC4)c3c2Cl)CC12CC2 (racemic) [Compound 32] : value?
0.1

Give the reported MIC for NC1CN(c2nc3c(cc2F)c(=O)c(C(=O)O)cn3C2CC2)CC12CC2 (stereo not drawn) [Compound 35] (system: Str. faecalis, ATCC-19433).
0.39

Form entry - test system: Str. faecalis, ATCC-19433; read-out: MIC; compound: C[C@H]1COc2c(N3CC(N)C4(CC4)C3)c(F)cc3c(=O)c(C(=O)O)cn1c23 (single isomer, unassigned; (-)) [Compound 36b]
0.39

Report MIC for C[C@H]1COc2c(N3CC(N)C4(CC4)C3)c(F)cc3c(=O)c(C(=O)O)cn1c23 (stereo partly drawn) [Compound 36] tested on Str. faecalis, ATCC-19433.
0.78

###

system: Ps. aeruginosa, 32104; assay: Antibacterial activity (MIC), Ps. aeruginosa 32104; assay type: cell-based; settings: Pseudomonas aeruginosa, 32104, Ps. aeruginosa
Give MIC for every item shown.
Write the answer as a number in µg/mL, unit excluded.

Which MIC is reported with Ps. aeruginosa, 32104 for this entry: N[C@@H]1CN(c2nc3c(cc2F)c(=O)c(C(=O)O)cn3-c2ccc(F)cc2F)CC12CC2 [Compound 111b] ?
0.2

So what MIC did NC1CN(c2c(F)cc3c(=O)c(C(=O)O)cn(C4CC4)c3c2F)CC12CC2 (stereo not shown) get with Ps. aeruginosa, 32104?
0.1

Recorded MIC for C[C@H]1COc2c(N3CC(N)C4(CC4)C3)c(F)cc3c(=O)c(C(=O)O)cn1c23 (stereo partly shown) [Compound 36] with Ps. aeruginosa, 32104, please?
0.2

Origin of measurements: patent US5508428A
